test.system: DLL3 endogenously expressed on NCI-H82 cells (UniProt Q9NYJ7)
Sequence (Q9NYJ7 27-618): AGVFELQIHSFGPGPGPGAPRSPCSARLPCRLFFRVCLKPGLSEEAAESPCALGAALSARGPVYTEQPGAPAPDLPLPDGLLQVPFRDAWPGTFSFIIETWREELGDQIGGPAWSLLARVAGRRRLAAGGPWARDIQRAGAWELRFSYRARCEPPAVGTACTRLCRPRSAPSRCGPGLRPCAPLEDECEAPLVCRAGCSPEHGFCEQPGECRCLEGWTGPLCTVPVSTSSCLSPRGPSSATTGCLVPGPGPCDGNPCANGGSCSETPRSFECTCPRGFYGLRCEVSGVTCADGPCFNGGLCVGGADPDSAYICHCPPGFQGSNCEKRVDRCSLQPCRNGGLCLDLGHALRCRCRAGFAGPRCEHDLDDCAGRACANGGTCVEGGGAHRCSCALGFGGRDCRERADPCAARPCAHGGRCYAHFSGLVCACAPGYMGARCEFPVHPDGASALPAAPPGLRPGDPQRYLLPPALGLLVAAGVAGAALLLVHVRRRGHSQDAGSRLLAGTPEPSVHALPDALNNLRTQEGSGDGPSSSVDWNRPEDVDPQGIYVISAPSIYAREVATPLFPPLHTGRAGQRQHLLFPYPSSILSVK
experimental.protocol: FACS on NCI-H82 cells; antibody 0.032 nM
experimental.readout: MFI
// no unit string in output, number only

Observe how each entry below is paired with its result.
binder: Hab015VL4VH6a-hFc (scFv, part only; not given: scFv linker and human IgG1 Fc, V domains shown, not shown: another chain or arm of the molecule; a dimerising Fc or GST; small tags and cut ends) VL: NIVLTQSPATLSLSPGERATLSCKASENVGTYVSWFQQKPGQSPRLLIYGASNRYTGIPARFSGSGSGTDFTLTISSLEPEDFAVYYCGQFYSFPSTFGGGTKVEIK VH: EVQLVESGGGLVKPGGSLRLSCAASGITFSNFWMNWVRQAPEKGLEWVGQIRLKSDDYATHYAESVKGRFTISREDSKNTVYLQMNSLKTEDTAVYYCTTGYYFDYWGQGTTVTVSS
MFI: 211

binder: Hab006VL1VH4-hFc (scFv, part only; not given: VL-VH linker and human IgG1 Fc, V domains shown, not shown: another chain or arm of the molecule; a dimerising Fc or GST; small tags and cut ends) VL: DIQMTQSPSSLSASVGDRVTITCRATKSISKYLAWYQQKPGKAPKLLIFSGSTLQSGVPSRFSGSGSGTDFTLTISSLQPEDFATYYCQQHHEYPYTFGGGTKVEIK VH: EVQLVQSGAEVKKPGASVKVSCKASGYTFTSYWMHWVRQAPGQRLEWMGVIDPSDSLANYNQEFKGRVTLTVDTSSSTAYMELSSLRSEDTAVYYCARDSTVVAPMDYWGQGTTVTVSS
MFI: 242

Consider the additional binder presented here.
Could you share which MFI value was measured for Hab009VL1aVH1-hFc (Fc fusion, part only; not given: Linker and human IgG1 Fc, not shown: a dimerising Fc or GST) chain, part: DIVMTQSPLSLPVTPGEPASISCRASQTISDYLHWYLQKPGQSPQLLIKYASQSISGVPDRFSGSGSGSDFTLKISRVEAEDVGVYYCQQGHSFPLTFGQGTKLEIKEVQLVQSGAEVKKPGASVKVSCKASGYTFTSYWMHWVRQAPGQRLEWMGTIYPGNSDTRYNQKFKDRVTITADTSASTAYMELSSLRSEDTAVYYCTRSYDYGDLDYWGQGTTVTVSS ?
379
